target: human factor Xa (Homo sapiens); construct: 25 μl human factor Xa (Enzyme Research Laboratories, Inc; South Bend, Ind.); purchased Enzyme Research Laboratories, Inc; South Bend, Ind; experiment: Factor Xa chromogenic assay (substrate S-2765); format: biochemical; settings: inhibition constant for inhibition of factor Xa; IC50 corrected for substrate competition; 25° C., enzyme 0.5 nM, substrate 140 μM; read-out: Ki(FXa);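 further: purified enzyme, compound preincubated with the enzyme for 10 min before substrate addition starts the reaction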
Sequence (P00742 235-488 limits assumed): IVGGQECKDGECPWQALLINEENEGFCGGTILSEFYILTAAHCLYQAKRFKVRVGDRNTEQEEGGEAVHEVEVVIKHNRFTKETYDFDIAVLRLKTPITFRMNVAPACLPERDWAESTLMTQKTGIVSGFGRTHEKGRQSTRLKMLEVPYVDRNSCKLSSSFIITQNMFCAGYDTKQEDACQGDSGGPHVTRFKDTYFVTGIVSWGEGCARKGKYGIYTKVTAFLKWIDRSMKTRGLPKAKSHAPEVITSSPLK
Sequence (P00742 41-179 partner limits assumed): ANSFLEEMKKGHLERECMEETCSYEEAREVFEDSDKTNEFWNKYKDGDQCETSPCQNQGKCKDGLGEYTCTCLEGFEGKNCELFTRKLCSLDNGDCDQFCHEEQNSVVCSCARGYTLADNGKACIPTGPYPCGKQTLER
RESULT TYPE: pKi
Just the number, please; pKi means minus log10 of the concentration in mol/L.

# return recorded pKi for input COc1cc(C(=O)N2CCN(Cc3ccncc3)CC2)cc(OCCc2ccc(Cl)cc2Cl)c1OC
6.78

Write down pKi measured for item COc1ccc(C(=O)NCC2CC(c3ccncc3)=NO2)cc1OCCc1ccc(Cl)cc1Cl (stereo not shown)
5.95

Provide measured pKi value, entry: COc1ccc(C(=O)N2CCN(c3ccncc3)CC2)cc1OCCc1ccc(Cl)cc1Cl
5.27

Identify the reported pKi for the following entry. COc1ccc(C(=O)NCC2CCN(C3CCCCCC3)CC2)cc1OCCc1ccc(Cl)cc1Cl
5.21

Query pKi for COc1ccc(C(=O)NCC2CCC(CN)CC2)cc1OCCc1ccc(Cl)cc1Cl (stereo not shown)
5.03

Return the recorded pKi value; entry: COc1ccc(C(=O)NCC2CCN(C3CCCCC3)CC2)cc1OCCc1ccc(Cl)cc1Cl
5.36

Give the measured pKi for COc1ccc(C(=O)N2CCN(CC(=O)N(C)C)CC2)cc1OCCc1ccc(Cl)cc1Cl
5.85

Provide only the value of recorded pKi for CCOc1ccc(C(=O)N2CCN(Cc3ccncc3)CC2)cc1OCCc1ccc(Cl)cc1Cl
6.51

Specify measured pKi for COc1ccc(C(=O)N2CCN(Cc3ccccn3)CC2)cc1OCCc1ccc(Cl)cc1Cl .
5.81

Look up and report measured pKi for this entry: COc1ccc(C(=O)NCC2CC(c3cc[n+]([O-])cc3)=NO2)cc1OCCc1ccc(Cl)cc1Cl (stereo not shown)
6.02

Report pKi for COc1ccc(C(=O)N2CCN(Cc3ccc(C#N)cc3)CC2)cc1OCCc1ccc(Cl)cc1Cl
5.86

Indicate its recorded pKi; the molecule in question is O=C(NCC1CCN(c2ccncc2)CC1)c1cc(OCCc2ccc(Cl)cc2Cl)ccc1[N+](=O)[O-]
5.31

Supply measured pKi of COc1cc(C(=O)NCC2CCN(c3ccncc3)CC2)cc(OCCc2ccc(Cl)cc2)c1Cl in your reply.
7.60
